assaySystem: human DLL3 endogenously expressed on SHP77 and NCI-H82 cells (human) (UniProt Q9NYJ7)
Sequence (Q9NYJ7 27-618): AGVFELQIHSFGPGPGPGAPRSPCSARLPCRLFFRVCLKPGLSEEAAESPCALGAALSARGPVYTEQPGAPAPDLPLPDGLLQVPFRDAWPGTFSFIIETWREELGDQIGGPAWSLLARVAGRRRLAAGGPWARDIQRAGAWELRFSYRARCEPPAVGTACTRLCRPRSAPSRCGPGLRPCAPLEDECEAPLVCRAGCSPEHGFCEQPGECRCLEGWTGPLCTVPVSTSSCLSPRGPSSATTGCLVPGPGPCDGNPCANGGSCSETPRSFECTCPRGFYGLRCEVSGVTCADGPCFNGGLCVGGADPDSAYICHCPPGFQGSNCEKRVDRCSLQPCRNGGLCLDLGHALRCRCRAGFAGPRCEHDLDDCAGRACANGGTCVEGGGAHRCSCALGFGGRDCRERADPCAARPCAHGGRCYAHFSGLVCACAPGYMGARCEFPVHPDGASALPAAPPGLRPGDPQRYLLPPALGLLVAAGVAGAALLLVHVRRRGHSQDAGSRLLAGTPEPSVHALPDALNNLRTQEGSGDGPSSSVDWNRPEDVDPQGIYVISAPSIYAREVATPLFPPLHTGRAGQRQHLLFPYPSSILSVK
measurementDescription: FACS SHP77 cells, 0.0064 nM
Recorded MFI by entry
measurementKind: MFI (MFI)

# binder, measurementKind, assayValue
records = [
    ("mab005 scFv-hFc (Fc fusion, not shown: small tags and cut ends; a dimerising Fc or GST) scFv (part 1 of 2): DIVLTQSPATLSVTPGDSVSLSCRASQSVSNDLHWYQQKSHESPRLLIKYASQSISGIPSRFSGSGSGTDFTLTINSVETEDFGMYFCQQSNNWPYTFGGGTKLEMK scFv (part 2 of 2): QVQLQQSGAELMKPGASVTLSCKATGYTLPGYWIEWVKQRPGHGLEWIGEILPGSSSANYNEKFKGKATFTADTSSNTAYMQLSSLTTEDSAIYYCASTYGTSLDYWGQGTTLTVSS", "MFI", 125),
    ("mab010 scFv-hFc (Fc fusion, not shown: small tags and cut ends; a dimerising Fc or GST) scFv (part 1 of 2): DIQMTQSPASLSVSVGETVTITCRASENINSNLAWYQQKQGKSPQLLVYAATNLADGVPSRFSGSGSGTQFSLKISGLQSEDFGSYYCQHFWGLPWTFGGGTKLEIR scFv (part 2 of 2): QVQLQQSGAELARPGASMKLSCKASGYTFTSYGISWVKQITGQGLEWIGEIFPRSGNTYDNENFRGKATLTADKSSSTAYLEVRSLTSEDSAVYFCARTTVFAPYYFDYWGQGTTLTVSS", "MFI", 161),
]
